# assay target: hCD3 (human CD3 antigen) (human, UniProt P07766 23-126)
# Sequence (P07766 23-126): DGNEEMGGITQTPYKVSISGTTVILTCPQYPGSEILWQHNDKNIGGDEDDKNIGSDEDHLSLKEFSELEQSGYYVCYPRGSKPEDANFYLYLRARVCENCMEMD
# assay explanation: ELISA, plate-coated hCD3
pEC50: −log10 of the molar value.
Listed here are binders together with their documented pEC50.

binder	pEC50
CD3 Ab01 (antibody, human IgG1, kappa, V domains shown, also called humanized anti-CD3 monoclonal antibody) VH: EVQLVESGGGLVQPGGSLRLSCAASGFTFNTYAMNWVRQAPGKGLEWVARIRSKYNNYATYYADSVKDRFTISRDDSKNSLYLQMNSLKTEDTAVYYCVRHGNFGNSYVSWFAYWGQGTLVTVSA VL: QAVVTQEPSLTVSPGGTVTLTCRSSTGAVTTSNYANWVQQKPGQAPRGLIGGTNKRAPWTPARFSGSLLGGKAALTLSGAQPEDEAEYYCALWYSNLWVFGGGTKLTVLR	11.02
CD3 Ab07 (antibody, human IgG1, kappa, V domains shown, also called humanized anti-CD3 monoclonal antibody) VH: EVQLVESGGGLVQPGGSLRLSCAASGFTFNTYAMNWVRQAPGKGLEWVARIRSKYNNYATYYADSVKDRFTISRDDSKNILYLQMNSLKTEDTAVYYCVRHGNFGNSYVSWFAYWGQGTLVTVSA VL: QAVVTQEPSLTVSPGGTVTLTCRSSTGAVTTSNYANWVQQKPGQAPRGLIGGTNKRAPWTPARFSGSLLGGKAALTLSGAQTEDEAEYYCALWYSNLWVFGGGTKLTVLR	10.89
CD3 Ab02 (antibody, human IgG1, kappa, V domains shown, also called humanized anti-CD3 monoclonal antibody) VH: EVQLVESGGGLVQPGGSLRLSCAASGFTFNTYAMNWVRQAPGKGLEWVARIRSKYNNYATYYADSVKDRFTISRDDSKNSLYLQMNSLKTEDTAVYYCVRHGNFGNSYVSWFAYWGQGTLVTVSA VL: QAVVTQEPSLTVSPGGTVTLTCRSSTGAVTTSNYANWVQQKPGQAPRGLIGGTNKRAPWTPARFSGSLLGGKAALTLSGAQTEDEAEYYCALWYSNLWVFGGGTKLTVLR	10.93
